Known Accumulation of a selection of compounds
- assay.system: Melanocortin receptor 4 (Homo sapiens)
- Sequence (P32245 whole entry): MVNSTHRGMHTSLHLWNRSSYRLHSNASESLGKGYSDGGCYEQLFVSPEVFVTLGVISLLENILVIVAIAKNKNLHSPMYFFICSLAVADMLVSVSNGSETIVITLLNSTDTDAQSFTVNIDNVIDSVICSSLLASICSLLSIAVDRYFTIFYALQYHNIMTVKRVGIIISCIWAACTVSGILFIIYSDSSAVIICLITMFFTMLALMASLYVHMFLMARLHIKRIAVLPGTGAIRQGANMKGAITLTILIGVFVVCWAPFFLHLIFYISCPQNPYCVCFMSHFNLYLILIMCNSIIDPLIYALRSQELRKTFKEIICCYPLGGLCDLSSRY
- assay.conditions: at 10 µM
outcome.measure: Accumulation (%)

INSERT INTO assay_data (compound_smiles, observed) VALUES
  ('CC[C@@H]1CN[C@H](C(=O)N[C@H](Cc2ccc(F)cc2)C(=O)N2CCC(C(=O)NC(C)(C)C)(C3CCCCC3)CC2)CN1C', 58),
  ('CC(C)(C)NC(=O)C1(C2CCCCC2)CCN(C(=O)[C@@H](Cc2ccc(F)cc2)NC(=O)[C@@H]2CN[C@@H](C(C)(C)C)CN2)CC1', 99),
  ('CC(C)(C)NC(=O)C1(C2CCCCC2)CCN(C(=O)[C@@H](Cc2ccc(F)cc2)NC(=O)[C@@H]2CN[C@@H](C3CC3)CN2)CC1', 102),
  ('CC(C)[C@H]1CN[C@H](C(=O)N[C@H](Cc2ccc(F)cc2)C(=O)N2CCC(C(=O)NC(C)(C)C)(C3CCCCC3)CC2)CN1', 82),
  ('CC(C)[C@@H]1CN[C@H](C(=O)N[C@H](Cc2ccc(F)cc2)C(=O)N2CCC(C(=O)NC(C)(C)C)(C3CCCCC3)CC2)CN1', 77),
  ('CC(C)(C)NC(=O)C1(C2CCCCC2)CCN(C(=O)[C@@H](Cc2ccc(F)cc2)NC(=O)[C@@H]2CN[C@@H](C3(C)CC3)CN2)CC1', 95),
  ('CC(C)(C)NC(=O)C1(C2CCCCC2)CCN(C(=O)[C@@H](Cc2ccc(F)cc2)NC(=O)[C@@H]2CN[C@H](C3(C)CC3)CN2)CC1', 69);

* * *

- assay.details: Selectivity for human melanocortin 3 receptor over melanocortin 5 receptor expressed in CHO cells; control 6 nM
- Format: cell-based
// Selectivity lookup, one value per entry
outcome.measure: Selectivity

INSERT INTO assay_data (compound_smiles, observed) VALUES
  ('CC[C@H]1CN[C@H](C(=O)N[C@H](Cc2ccc(F)cc2)C(=O)N2CCC(C(=O)NC(C)(C)C)(C3CCCCC3)CC2)CN1C', 192),
  ('CC[C@@H]1CN[C@H](C(=O)N[C@H](Cc2ccc(F)cc2)C(=O)N2CCC(C(=O)NC(C)(C)C)(C3CCCCC3)CC2)CN1C', 49),
  ('CC(C)(C)NC(=O)C1(C2CCCCC2)CCN(C(=O)[C@@H](Cc2ccc(F)cc2)NC(=O)[C@@H]2CN[C@H](C3(C)CC3)CN2)CC1', 23),
  ('CC(C)[C@@H]1CN[C@H](C(=O)N[C@H](Cc2ccc(F)cc2)C(=O)N2CCC(C(=O)NC(C)(C)C)(C3CCCCC3)CC2)CN1', 49);

* * *

- assay.system: Melanocortin receptor 3 (Homo sapiens)
- Sequence (P41968 whole entry): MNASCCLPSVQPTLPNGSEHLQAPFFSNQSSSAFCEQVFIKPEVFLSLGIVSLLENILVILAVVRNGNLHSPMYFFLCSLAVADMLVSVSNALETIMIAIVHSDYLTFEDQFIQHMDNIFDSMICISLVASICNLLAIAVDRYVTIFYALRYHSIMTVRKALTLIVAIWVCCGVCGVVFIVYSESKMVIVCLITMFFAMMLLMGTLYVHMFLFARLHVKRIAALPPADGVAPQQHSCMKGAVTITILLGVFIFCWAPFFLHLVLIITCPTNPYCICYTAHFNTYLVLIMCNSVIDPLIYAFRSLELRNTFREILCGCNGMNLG
- assay.conditions: at 10 µM
Quick list: Accumulation per entry.
outcome.measure: Accumulation (%)

INSERT INTO results (molecule, assay_system, units_label, observed) VALUES
  ('CC(C)C1CNC[C@@H](C(=O)N[C@H](Cc2ccc(F)cc2)C(=O)N2CCC(C(=O)NC(C)(C)C)(C3CCCCC3)CC2)N1 (some centres undefined)', 'Melanocortin receptor 3 (Homo sapiens)', '%', 4),
  ('CC(C)(C)NC(=O)C1(C2CCCCC2)CCN(C(=O)[C@@H](Cc2ccc(F)cc2)NC(=O)[C@@H]2CN[C@@H](C3(C)CC3)CN2)CC1', 'Melanocortin receptor 3 (Homo sapiens)', '%', 10),
  ('CC[C@@H]1CN[C@H](C(=O)N[C@H](Cc2ccc(F)cc2)C(=O)N2CCC(C(=O)NC(C)(C)C)(C3CCCCC3)CC2)CN1', 'Melanocortin receptor 3 (Homo sapiens)', '%', 6),
  ('CC[C@H]1CN[C@H](C(=O)N[C@H](Cc2ccc(F)cc2)C(=O)N2CCC(C(=O)NC(C)(C)C)(C3CCCCC3)CC2)CN1', 'Melanocortin receptor 3 (Homo sapiens)', '%', 9);

* * *

- assay.system: Melanocortin receptor 3 (Homo sapiens)
- assay.details: Concentration of compound at 50% maximum cAMP accumulation mediated by human melanocortin 3 receptor
pEC50: −log10 of the molar value.
outcome.measure: pEC50

INSERT INTO assay_data (compound_smiles, outcome_measure, observed) VALUES
  ('CC[C@H]1CN[C@H](C(=O)N[C@H](Cc2ccc(F)cc2)C(=O)N2CCC(C(=O)NC(C)(C)C)(C3CCCCC3)CC2)CN1C', 'pEC50', 6.82);

* * *

- assay.system: UniProtKB P41968
- assay.conditions: at 10 µM
Readings of Accumulation for the listed compounds
outcome.measure: Accumulation (%)

INSERT INTO results (compound_smiles, observed) VALUES
  ('CC(C)(C)NC(=O)C1(C2CCCCC2)CCN(C(=O)[C@@H](Cc2ccc(F)cc2)NC(=O)[C@@H]2CN[C@@H](C3CC3)CN2)CC1', 9),
  ('CC(C)(C)NC(=O)C1(C2CCCCC2)CCN(C(=O)[C@@H](Cc2ccc(F)cc2)NC(=O)[C@@H]2CNC3(CC3)CN2)CC1', 6),
  ('CC(C)[C@H]1CN[C@H](C(=O)N[C@H](Cc2ccc(F)cc2)C(=O)N2CCC(C(=O)NC(C)(C)C)(C3CCCCC3)CC2)CN1', 8),
  ('CC(C)(C)NC(=O)C1(C2CCCCC2)CCN(C(=O)[C@@H](Cc2ccc(F)cc2)NC(=O)[C@@H]2CN[C@H](C3CC3)CN2)CC1.CC(F)(F)C(=O)O', 4),
  ('CC[C@H]1CN[C@H](C(=O)N[C@H](Cc2ccc(F)cc2)C(=O)N2CCC(C(=O)NC(C)(C)C)(C3CCCCC3)CC2)CN1C', 29),
  ('CC(C)(C)NC(=O)C1(C2CCCCC2)CCN(C(=O)[C@@H](Cc2ccc(F)cc2)NC(=O)[C@@H]2CN[C@H](C3(C)CC3)CN2)CC1', 5),
  ('CC[C@@H]1CN[C@H](C(=O)N[C@H](Cc2ccc(F)cc2)C(=O)N2CCC(C(=O)NC(C)(C)C)(C3CCCCC3)CC2)CN1C', 8),
  ('CC(C)(C)NC(=O)C1(C2CCCCC2)CCN(C(=O)[C@@H](Cc2ccc(F)cc2)NC(=O)[C@@H]2CN[C@@H](C(C)(C)C)CN2)CC1', 11),
  ('C[C@H]1CN[C@H](C(=O)N[C@H](Cc2ccc(F)cc2)C(=O)N2CCC(C(=O)NC(C)(C)C)(C3CCCCC3)CC2)CN1', 6),
  ('CC(C)[C@@H]1CN[C@H](C(=O)N[C@H](Cc2ccc(F)cc2)C(=O)N2CCC(C(=O)NC(C)(C)C)(C3CCCCC3)CC2)CN1', 6),
  ('CC(C)(C)NC(=O)C1(C2CCCCC2)CCN(C(=O)[C@@H](Cc2ccc(F)cc2)NC(=O)[C@@H]2CN[C@H](C(C)(C)C)CN2)CC1', 5);

* * *

- assay.system: Melanocortin receptor 4 (Homo sapiens)
- assay.details: Concentration of compound at 50% maximum cAMP accumulation mediated by human melanocortin 4 receptor
pEC50: −log10 of the molar value.
Catalogue of pEC50 values
outcome.measure: pEC50

INSERT INTO assay_data (compound, outcome_measure, observed) VALUES
  ('CC(C)(C)NC(=O)C1(C2CCCCC2)CCN(C(=O)[C@@H](Cc2ccc(F)cc2)NC(=O)[C@@H]2CN[C@@H](C3CC3)CN2)CC1', 'pEC50', 8.30),
  ('CC(C)(C)NC(=O)C1(C2CCCCC2)CCN(C(=O)[C@@H](Cc2ccc(F)cc2)NC(=O)[C@@H]2CN[C@@H](C3(C)CC3)CN2)CC1', 'pEC50', 8.15),
  ('CC(C)(C)NC(=O)C1(C2CCCCC2)CCN(C(=O)[C@@H](Cc2ccc(F)cc2)NC(=O)[C@@H]2CN[C@@H](C(C)(C)C)CN2)CC1', 'pEC50', 8.15),
  ('CC(C)(C)NC(=O)C1(C2CCCCC2)CCN(C(=O)[C@@H](Cc2ccc(F)cc2)NC(=O)[C@@H]2CN[C@H](C3CC3)CN2)CC1.CC(F)(F)C(=O)O', 'pEC50', 7.44),
  ('CC(C)[C@@H]1CN[C@H](C(=O)N[C@H](Cc2ccc(F)cc2)C(=O)N2CCC(C(=O)NC(C)(C)C)(C3CCCCC3)CC2)CN1', 'pEC50', 7.38),
  ('CC(C)C1CNC[C@@H](C(=O)N[C@H](Cc2ccc(F)cc2)C(=O)N2CCC(C(=O)NC(C)(C)C)(C3CCCCC3)CC2)N1 (stereo partly drawn)', 'pEC50', 7.74),
  ('CC[C@@H]1CN[C@H](C(=O)N[C@H](Cc2ccc(F)cc2)C(=O)N2CCC(C(=O)NC(C)(C)C)(C3CCCCC3)CC2)CN1C', 'pEC50', 6.48),
  ('CC[C@H]1CN[C@H](C(=O)N[C@H](Cc2ccc(F)cc2)C(=O)N2CCC(C(=O)NC(C)(C)C)(C3CCCCC3)CC2)CN1C', 'pEC50', 8.70);
